Numbers sourced from PubChem BioAssay (NCI).

Each item that follows carries a reported GI50.
tested on: SK-MEL-28 melanoma; test: NCI tumour cell line growth inhibition, 48 h

1) O=C(CCN1CCCC1)Nc1ccc2c(NCCCCc3ccccc3)c3ccccc3nc2c1 ... 1.8 µM
2) CNCCNc1nc2ccccc2c2c(=O)c3cccc(OC)c3sc12 ... 1.94 µM
3) COC(=O)c1ccc2c(c1)nc(-c1ccc(Cl)cc1)n2-c1cc(C(C)(C)C)[nH]n1 ... 3.38 µM
4) COc1ccc(/C=C(/C(=O)N2CCNCC2)c2cc(OC)c(OC)c(OC)c2)cc1O ... 8.84 µM
5) CC(O)CN(CCN(CC(C)O)CC(C)O)CC(C)O.O=[N+]([O-])O.[Cu+2] (configuration not stated) ... > 100 µM
6) Cc1ccccc1NC(=O)NC(CC(N)=O)c1ccc2c(c1)nc(-c1cccc(Oc3ccc(C(C)(C)C)cc3)c1)n2CCCN1CCCCC1C (configuration not stated) ... 1.89 µM
7) Cc1ccc(/C=C(\C#N)n2nnc3cc(F)c(F)cc32)cc1 ... 6.79 µM
8) O=C(NC(=S)NS(=O)(=O)c1ccc(N2N=C3c4ccccc4CC3C2c2cccs2)cc1)c1ccccc1 (configuration not stated) ... 84 µM
9) Cc1cc(S(N)(=O)=O)c(S/C(=N\NS(=O)(=O)c2ccc(Cl)cc2)c2ccc(Cl)cc2)cc1Cl ... > 100 µM
10) O=C1c2cccnc2-c2nc(-c3ccc([N+](=O)[O-])cc3)cc3c2c1nc1ccccc13 ... 12.7 µM

## Input Which GI50 is reported with SK-MEL-28 melanoma for this entry: CN(C)CCn1cc(-c2ccc3c(Nc4ccc(CC(=O)Nc5cccc(F)c5)cc4)ncnc3c2)cn1 ?
## Output 1.61 µM

## Input Can you look up GI50 on SK-MEL-28 melanoma for Cn1c2ccccc2c2c3c(c4c5ccccc5n(CCCCCC#N)c4c21)C(=O)N(O)C3=O ?
## Output 1.72 µM
